Target: UniProtKB P04626
Sequence (P04626 23-1255): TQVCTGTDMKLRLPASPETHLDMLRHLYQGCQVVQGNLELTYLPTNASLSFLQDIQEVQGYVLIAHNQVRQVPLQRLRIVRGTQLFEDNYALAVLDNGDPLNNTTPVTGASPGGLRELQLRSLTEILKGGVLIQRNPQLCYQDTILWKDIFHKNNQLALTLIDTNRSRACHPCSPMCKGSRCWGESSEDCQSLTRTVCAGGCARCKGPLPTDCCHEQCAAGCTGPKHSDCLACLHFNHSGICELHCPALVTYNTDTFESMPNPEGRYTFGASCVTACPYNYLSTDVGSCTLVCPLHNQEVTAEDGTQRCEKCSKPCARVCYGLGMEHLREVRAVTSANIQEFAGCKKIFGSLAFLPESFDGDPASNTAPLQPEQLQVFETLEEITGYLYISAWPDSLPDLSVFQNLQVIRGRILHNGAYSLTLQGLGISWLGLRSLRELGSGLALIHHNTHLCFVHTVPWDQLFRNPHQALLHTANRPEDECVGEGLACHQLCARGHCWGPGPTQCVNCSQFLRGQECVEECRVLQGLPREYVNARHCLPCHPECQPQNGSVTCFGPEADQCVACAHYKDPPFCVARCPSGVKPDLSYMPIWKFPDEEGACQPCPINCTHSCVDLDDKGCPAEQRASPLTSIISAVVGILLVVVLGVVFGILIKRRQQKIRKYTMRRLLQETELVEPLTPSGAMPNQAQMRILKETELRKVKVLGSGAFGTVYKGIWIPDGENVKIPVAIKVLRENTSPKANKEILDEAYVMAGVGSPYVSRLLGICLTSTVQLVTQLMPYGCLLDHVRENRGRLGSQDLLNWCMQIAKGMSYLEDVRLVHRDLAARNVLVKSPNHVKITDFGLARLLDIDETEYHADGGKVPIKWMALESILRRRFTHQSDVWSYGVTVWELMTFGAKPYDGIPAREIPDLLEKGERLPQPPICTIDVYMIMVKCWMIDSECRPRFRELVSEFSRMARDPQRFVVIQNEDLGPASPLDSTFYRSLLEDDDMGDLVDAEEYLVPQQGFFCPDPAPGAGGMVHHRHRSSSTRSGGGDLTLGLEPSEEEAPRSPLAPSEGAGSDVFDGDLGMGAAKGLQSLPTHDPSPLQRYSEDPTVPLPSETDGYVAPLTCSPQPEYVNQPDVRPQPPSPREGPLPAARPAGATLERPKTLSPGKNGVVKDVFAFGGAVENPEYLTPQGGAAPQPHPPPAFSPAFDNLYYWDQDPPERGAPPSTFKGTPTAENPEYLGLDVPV
Mark each entry Fulfilled if its IC50 sits below 70 nM, and Not fulfilled for all others.

Some entries whose results are on file:
CO[C@@H]1CCCN(c2ncc3ncnc(Nc4ccc(Oc5ccc6c(c5)ncn6C)c(C)c4)c3n2)C1 : Fulfilled
Cc1cc(Nc2ncnc3cnc(N4C[C@@H]5[C@@H](C#N)[C@@H]5C4)nc23)ccc1Oc1ccc2c(c1)ncn2C : Not fulfilled
CON1CCN(c2ncc3ncnc(Nc4ccc(Oc5ccn6ncnc6c5)c(C)c4)c3n2)CC1 : Not fulfilled
Cc1c(Oc2ccn3ncnc3c2)ccc(Nc2ncnc3cnc(N4CC[C@@](C)(O)C4)nc23)c1F : Fulfilled
Cc1cc(Nc2ncnc3cnc(NOCC(C)(C)O)nc23)ccc1Oc1ccc2c(c1)ncn2C : Fulfilled

Incoming: IC50 under 70 nM? Item: Cc1cc(Nc2ncnc3cnc(N[C@@H]4CCNC[C@@H]4F)nc23)ccc1Oc1ccc2c(c1)ncn2C
Outgoing: Fulfilled

Incoming: Then what about the molecule Cc1c(Oc2ccn3ncnc3c2)ccc(Nc2ncnc3cnc(N4CC[C@H]4C(C)(C)O)nc23)c1F ?
Outgoing: Not fulfilled
